Tested on: NCI-H1975
Test: relative viability (nuclei count vs DMSO), 5 days (fraction); higher = more cells survive
Details: first compound 0.5 µM
Each entry below lists one item and its recorded relative viability value.

Use the examples below as a reference point.
CC1(C)CCC(c2ccc(Cl)cc2)=C(CN2CCN(c3ccc(C(=O)NS(=O)(=O)c4ccc(N[C@H](CCN5CCOCC5)CSc5ccccc5)c(S(=O)(=O)C(F)(F)F)c4)cc3)CC2)C1 [Navitoclax] + CCNC(=O)c1noc(-c2cc(C(C)C)c(O)cc2O)c1-c1ccc(CN2CCOCC2)cc1 [Luminespib] (partner 0.01 µM)	0.132
CC1(C)CCC(c2ccc(Cl)cc2)=C(CN2CCN(c3ccc(C(=O)NS(=O)(=O)c4ccc(N[C@H](CCN5CCOCC5)CSc5ccccc5)c(S(=O)(=O)C(F)(F)F)c4)cc3)CC2)C1 [Navitoclax] + CC(=O)c1c(C)c2cnc(Nc3ccc(N4CCNCC4)cn3)nc2n(C2CCCC2)c1=O [Palbociclib] (partner 0.5 µM)	0.585
CC1(C)CCC(c2ccc(Cl)cc2)=C(CN2CCN(c3ccc(C(=O)NS(=O)(=O)c4ccc(N[C@H](CCN5CCOCC5)CSc5ccccc5)c(S(=O)(=O)C(F)(F)F)c4)cc3)CC2)C1 [Navitoclax] + Cc1cc(Nc2cc(N3CCN(C)CC3)nc(Sc3ccc(NC(=O)C4CC4)cc3)n2)n[nH]1 [Tozasertib] (partner 0.1 µM)	0.815

The recorded relative viability for CC1(C)CCC(c2ccc(Cl)cc2)=C(CN2CCN(c3ccc(C(=O)NS(=O)(=O)c4ccc(N[C@H](CCN5CCOCC5)CSc5ccccc5)c(S(=O)(=O)C(F)(F)F)c4)cc3)CC2)C1 [Navitoclax] + C[C@]1(O)C[C@@H](c2nc(-c3ccc4ccc(-c5ccccc5)nc4c3)c3c(N)nccn32)C1 [Linsitinib] (partner 1 µM) is 1

The recorded relative viability for CC1(C)CCC(c2ccc(Cl)cc2)=C(CN2CCN(c3ccc(C(=O)NS(=O)(=O)c4ccc(N[C@H](CCN5CCOCC5)CSc5ccccc5)c(S(=O)(=O)C(F)(F)F)c4)cc3)CC2)C1 [Navitoclax] + O=C(c1cc(Cc2n[nH]c(=O)c3ccccc23)ccc1F)N1CCN(C(=O)C2CC2)CC1 [Olaparib] (partner 8 µM) is 0.755
